Tested on: NCI-H460 lung
Experiment: NCI tumour cell line growth inhibition, 48 h
Where a SMILES comes first, the peptide text is derived from it. [ ]: non-standard residue; d: D form. Ac5c = NC1(C(=O)O)CCCC1
Please provide measured TGI for the entries that follow.

The cases that follow already have their TGI on record.
Prompt line: Under NCI-H460 lung, report TGI for COC(=O)c1sc(=O)n(-c2ccccc2)c1SCc1ccccc1
Response line: > 100 µM

Prompt line: Enter recorded TGI with NCI-H460 lung for COc1ccc(-c2nc3ccc([N+](=O)[O-])cc3c(=O)[nH]2)cc1 here.
Response line: > 100 µM

Batch lookup, TGI per entry.
1. Cc1nc2c(=O)n(C)c(=O)n(C)c2o1
2. CC(C)(Oc1ccc(Cl)cc1)C(=O)NC1C2CC3CC1CC(NS(C)(=O)=O)(C3)C2 (centres undefined)
3. CNCCCNc1c2cc(OC)ccc2nc2cccc([N+](=O)[O-])c12
4. C=C(C)C[C@H](Sc1nc2ccccc2s1)[C@H](C)O
5. NCC(=O)NC1(C(=O)O)CCCC1 (H-Gly-[Ac5c]-OH)

Response line:
> 100 µM
> 100 µM
0.103 µM
> 100 µM
> 100 µM

Provide reported TGI for each item, in the same order as listed.
1. CCCCCCCCCCCCCCCCNC(=O)OC(C)C
2. CC1=C(C(=O)Nc2ccc(Cl)c(Cl)c2)C(c2ccccc2Cl)NC(=S)N1 (centres undefined)

Response line:
1: 2.46 µM; 2: 13.7 µM

====

System: SF-295 CNS
Assay: NCI tumour cell line growth inhibition, 48 h
Exercise: state measured TGI for each of the molecules provided.

Prompt line: Given C[C@]12CCc3nonc3C1CC[C@@H]1C2CC[C@]2(C)C(=O)/C(=N\O)CC12 (stereo partly drawn) , respond with its TGI.
Response line: > 100 µM

Prompt line: Output measured TGI for this item: NS(=O)(=O)N(c1cc(C(F)(F)F)cc(C(F)(F)F)c1)C1CCN(Cc2ccc(C(F)(F)F)cc2)CC1
Response line: 13.5 µM

Prompt line: Input CC(C)(C)C1=NC(=S)SC2=NC(=O)C3(NN21)c1ccccc1-c1ccccc13 , output reported TGI.
Response line: > 10 µM

Prompt line: Given COC(=O)C1CCC(=O)C(Sc2ccccc2)C1 (stereo not drawn) , respond with its TGI.
Response line: > 100 µM

Prompt line: Give TGI for COc1cc(C(=O)C(CO)Oc2ccccc2OC)ccc1O (stereo not drawn)
Response line: > 100 µM

Prompt line: Determine its reported TGI: Cc1ccc(NC(=O)CC/C(CC(=O)C(C)(C)C)=N/Nc2nnc(C)n2N)cc1C
Response line: > 100 µM

Prompt line: Annotate the molecule C=C1C(=O)O[C@H]2[C@H]1CC/C(COC(=O)NCc1ccc(Cn3c(=O)sn(CCI)c3=O)cc1)=C\CC[C@@]1(C)O[C@@H]21 with its measured TGI.
Response line: 27.1 µM

Prompt line: Quick one: give measured TGI for O=C(c1ccco1)N(Cc1cccnc1)C(=S)N(Cc1cccnc1)C(=O)c1ccco1
Response line: 77.1 µM

Prompt line: Identify measured TGI associated with CC(=O)/C=C/CCC(=O)/C=C/C(=O)OC(CCC(=O)/C=C/C(=O)O)CC(C)=O (stereo not drawn)
Response line: > 100 µM

Prompt line: Give recorded TGI. CCN(CC)c1ncnc2c1ncn2CCNC(CO)(CO)CO
Response line: > 100 µM

Hi! Can you tell me TGI for each of these molecules?
1. CC1CN=C(N(C)C(=O)Nc2ccc(Cl)cc2)S1 (stereo not drawn)
2. Cc1cc([N+](=O)[O-])c(C)c2c1[nH]c1ccc(O)cc12
3. COC(=O)c1c2c(c(C)[n+]([O-])c1C)C(=O)C(NCc1cccc(Cl)c1)=CC2=O

Response line:
1. > 100 µM
2. > 100 µM
3. 2.72 µM

====

System: UACC-257 melanoma
Experiment: NCI tumour cell line growth inhibition, 48 h
Property Name: TGI

Recorded results for 2 compounds are shown here.
Prompt line: Using the record for N#CCCN(CCNc1ccccc1)C(=O)Nc1ccc(NC(=O)N(CCC#N)CCNc2ccccc2)cc1 , state its measured TGI.
Response line: > 100 µM

Prompt line: Respond only with TGI recorded for CCCn1c2c(c3ccccc3c1=O)C(=O)c1cc3c(cc1-2)OCO3
Response line: > 100 µM

Please find the next compound below.
Prompt line: Query TGI for O=C(Cc1ccc(OCc2cccc(Cl)c2)cc1)NO
Response line: > 100 µM

====

System: MDA-MB-231 breast
Test: NCI tumour cell line growth inhibition, 48 h; in the data active = GI50 below about 0.43 µM; inactive = the rest
Field 'call' accepts yes (1) (active), no (0) (inactive)

Known results for molecules:
Prompt line: Check the results log: what was the call for COC(=O)[C@@H]1CCCN1C(=O)[C@@H]1CCCN1C(=O)[C@H](Cc1ccccc1)NC(=S)Nc1cc(C(F)(F)F)cc(C(F)(F)F)c1 ?
Response line: no (0)

Prompt line: Which result was noted for this molecule in the test: CN1CCN(Cc2ccc(NC(=O)c3cnc(F)c(C#Cc4cnc(N)c5ncccc45)c3)cc2C(F)(F)F)CC1
Response line: yes (1)

Prompt line: Status in this test for CCOC(=O)c1ccc(NC(=O)Nc2nccs2)cc1 ?
Response line: yes (1)

Prompt line: Call for entry Nc1nc2cc(-c3ccc4ncc(C(=O)N5CCOCC5)n4c3)ccc2o1 :
Response line: no (0)

Prompt line: State the result this test recorded for O=c1ccc(N=Nc2ccccc2)ccc1Cl .
Response line: no (0)

***
Prompt line: Test call for this molecule, please: CCOC(=O)c1c2c(n(Cc3ccc(Cl)cc3Cl)c1C)-c1nc(Cc3ccccc3)[nH]c1C(=O)C2=O
Response line: no (0)

Prompt line: For CN1CCN(Cc2ccc(NC(=O)c3nc4ccc5[nH]ncc5c4c4c3CCCC4)cc2C(F)(F)F)CC1 , what call appears in the results of this test?
Response line: no (0)

Prompt line: Recorded test call requested for O=[N+]([O-])c1cc([N+](=O)[O-])c(N2CCCC2)cc1NN=C(c1ccc(O)cc1)c1ccc(O)cc1
Response line: no (0)

Prompt line: Which outcome was assigned to COc1cc(-c2cc(/C=C3\C(=O)Nc4ccc(Cl)cc43)[nH]n2)cc(OC)c1OC in this test?
Response line: no (0)

Prompt line: Per the records of this test, what outcome belongs to O=C1c2ccc3c4c(ccc(c24)C(=O)N1CCCNCc1ccccc1F)C(=O)N(CCCNCc1ccccc1F)C3=O ?
Response line: yes (1)

Prompt line: # lookup: test call for CC(C)(C)CC(C)(C)c1ccc(OCCSC(=N)N)cc1
Response line: no (0)

Prompt line: Returns: the outcome recorded for CCN(CCCNC(=O)Cc1cc(=O)oc2cc(N(C)C)ccc12)CCNc1ccnc2cc(Cl)ccc12 in this assay.
Response line: no (0)

====

Provide the reported TGI of each item.
Test system: NCI-H23 lung
Assay: NCI tumour cell line growth inhibition, 48 h

Example cases with answers are listed next.
Prompt line: Let me know recorded TGI for CCCCC/C=C/C(=O)CCc1ccc(O)c(OC)c1 , thanks.
Response line: 17.9 µM

Prompt line: State its TGI for this molecule: COc1cc([C@@H]2c3cc4c(cc3[C@@H](NC(=O)c3cccc(N)c3)C3COC(=O)[C@@H]32)OCO4)cc(OC)c1O (stereo not given in full)
Response line: 2.22 µM

Prompt line: Input COC(=O)CCC(C)[C@H]1CCC2C3C(C[C@H](OC(C)=O)[C@@]21C)[C@@]1(C)CCC2(C[C@H]1C[C@H]3OC(C)=O)OOC1(CCCCCCC1)OO2 (stereo not given in full) , output reported TGI.
Response line: > 100 µM

Prompt line: State its TGI for this molecule: N#CCCN(CCNc1ccccc1)C(=O)Nc1ccc(NC(=O)N(CCC#N)CCNc2ccccc2)cc1
Response line: > 100 µM

Give me TGI for each of these molecules, listed below.
1. COc1cc(C(=O)C(CO)Oc2ccccc2OC)ccc1O (stereo not given)
2. COc1cc(-c2cncn2-c2ccc(-c3nc4ccc(F)cc4s3)cc2)ccc1F
3. CC(C)OP(=O)(CCCCCCCCC/C=C/c1ccc2c(c1)OCCOCCOCCOCCO2)OC(C)C
4. CCCCSSC(=S)N(CC)CC
5. CC1(C)N([O-])[N+](=O)C1(C)Br (stereo not given)
6. COc1ccc(/C=N/Nc2nc(N)nc(N3CCCC3)c2C#N)cc1

Response line:
1: > 100 µM; 2: > 100 µM; 3: 8.21 µM; 4: > 100 µM; 5: > 100 µM; 6: 48.1 µM

====

System: RXF 393 renal
Assay: NCI tumour cell line growth inhibition, 48 h
Property Name: TGI (µM)
Answers are plain numbers, in µM.

The following compounds each have a reported value; give each one's TGI.
1. O=C1c2[nH]cc(CN3CCN(CCO)CC3)c2C(=O)c2c1c(O)c1ccccc1c2O
2. CCC(/C=C(C)/C=C/C(=O)c1c(O)c(-c2ccc(O)cc2)c[nH]c1=O)CO (centres undefined)
3. C=C1C(=O)O[C@H]2[C@H]1CC/C(COC(=O)NCc1[nH]nc3ccccc13)=C\CC[C@@]1(C)O[C@@H]21
4. CC(C)OP(=O)(CCCCCCCCC/C=C/c1ccc2c(c1)OCCOCCOCCOCCO2)OC(C)C
5. O=C(COc1ccc(OCC(=O)N2C(=O)CN(c3ccc(Cl)cc3)C2=S)cc1)N1C(=O)CN(c2ccc(Cl)cc2)C1=S
6. Cc1nnc([S-])o1.[Au+].c1ccc([PH+](c2ccccc2)c2ccccc2)cc1
7. CCN(CCCNC(=O)Cc1cc(=O)oc2cc(N(C)C)ccc12)CCNc1ccnc2cc(Cl)ccc12

Response line:
1: 22.9; 2: 22.2; 3: 2.23; 4: 9.12; 5: 67.5; 6: 2.51; 7: 5.15
